Each recorded value in this set is attributed to paper PMC7156458.

The entries below are paired with their reported Th-T assay signal, mean of three wells (Fig. 7a).
- target_system: Aβ42 (Homo sapiens, UniProt P05067)
- Sequence (P05067 672-713): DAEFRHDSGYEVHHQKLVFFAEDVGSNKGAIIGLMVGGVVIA
- assay_procedure: Th-T (thioflavin-T) assay of Aβ42 aggregation
- Type: biochemical
- cond: column suffix _10; reading M17
Lab note: write the figure by itself, no unit.

# compound, target_system, quantitative_result
records = [
    ("C=C1CC[C@@H]2[C@](C)(CC[C@H]3O[C@H](C=C(C)C)C[C@@]23C)[C@@H]1Cc1c(OC)oc(CO)c(C(=O)OC)c1=O [Compound 21]", "Aβ42 (Homo sapiens, UniProt P05067)", 0.228),
    ("C=C1CCC2C(C)(CCC=C(C)C)C(O)CCC2(C)C1Cc1c(OC)oc(CO)c(C(=O)OC)c1=O (centres unmarked) [Compound 13]", "Aβ42 (Homo sapiens, UniProt P05067)", 0.2352),
    ("C=C1CCC2C(C)(CCC=C(C)C)C(O)CCC2(C)C1Cc1c(OC)oc(C)c(C(=O)OC)c1=O (centres unmarked) [Compound 14]", "Aβ42 (Homo sapiens, UniProt P05067)", 1.668),
    ("C=C1CCC2C(C)(CCC=C(C)C)C(O)CCC2(C)C1Cc1c(OC)oc(CO)c(C)c1=O (centres unmarked) [Compound 12]", "Aβ42 (Homo sapiens, UniProt P05067)", 2.406),
]

Shifting focus to the compound that follows.
Query: Using the record for C=C1CC[C@@H]2[C@](C)(CC[C@H]3O[C@H](C=C(C)C)C[C@@]23C)[C@@H]1Cc1c(OC)oc(CO)c(C)c1=O [Compound 20] , report its Th-T assay signal, mean of three wells (Fig. 7a).
Response: 2.976

---

- target_system: Aβ42 (Homo sapiens)
- assay_procedure: Th-T (thioflavin-T) assay of Aβ42 aggregation
- Assay type: biochemical
- cond: column suffix _10; measurement M19
The entries below are paired with their reported Th-T fluorescence, mean of three wells (Fig. 7a).
Lab note: write the figure by itself, no unit.

Some compounds with known Th-T fluorescence, mean of three wells (Fig. 7a) results, for comparison:
# compound, quantitative_result
rows = [
    ("C=C1CCC2C(C)(CCC=C(C)C)C(O)CCC2(C)C1Cc1c(OC)oc(C)c(C(=O)OC)c1=O (centres unmarked)", 1.991),
    ("C=C1CCC2C(C)(CCC=C(C)C)C(O)CCC2(C)C1Cc1c(OC)oc(CO)c(C)c1=O (centres unmarked)", 2.572),
    ("C=C1CC[C@@H]2[C@](C)(CC[C@H]3O[C@H](C=C(C)C)C[C@@]23C)[C@@H]1Cc1c(OC)oc(CO)c(C(=O)OC)c1=O", 0.2262),
]

Query: Give Th-T fluorescence, mean of three wells (Fig. 7a) (Aβ42 (Homo sapiens)) of the following compound: C=C1CCC2C(C)(CCC=C(C)C)C(O)CCC2(C)C1Cc1c(OC)oc(CO)c(C(=O)OC)c1=O (centres unmarked)
Response: 0.2324

Query: Give Th-T fluorescence, mean of three wells (Fig. 7a) (Aβ42 (Homo sapiens)) of the following compound: C=C1CC[C@@H]2[C@](C)(CC[C@H]3O[C@H](C=C(C)C)C[C@@]23C)[C@@H]1Cc1c(OC)oc(CO)c(C)c1=O
Response: 3.317

---

The entries below are paired with their reported Fig. 7a Th-T reading, mean of three wells.
- target_system: Aβ42 (Homo sapiens, UniProt P05067)
- assay_procedure: Th-T (thioflavin-T) assay of Aβ42 aggregation
- Assay type: biochemical
- cond: column suffix _20; reading M90
Lab note: write the figure by itself, no unit.

Some compounds with known Fig. 7a Th-T reading, mean of three wells results, for comparison:
# compound, quantitative_result
measured = [
    ("C=C1CC[C@@H]2[C@](C)(CC[C@H]3O[C@H](C=C(C)C)C[C@@]23C)[C@@H]1Cc1c(OC)oc(CO)c(C)c1=O [Compound 20]", 3.341),
    ("C=C1CCC2C(C)(CCC=C(C)C)C(O)CCC2(C)C1Cc1c(OC)oc(CO)c(C)c1=O (centres unmarked) [Compound 12]", 2.088),
    ("C=C1CCC2C(C)(CCC=C(C)C)C(O)CCC2(C)C1Cc1c(OC)oc(C)c(C(=O)OC)c1=O (centres unmarked) [Compound 14]", 1.855),
    ("C=C1CCC2C(C)(CCC=C(C)C)C(O)CCC2(C)C1Cc1c(OC)oc(CO)c(C(=O)OC)c1=O (centres unmarked) [Compound 13]", 1.054),
]

Query: Using the record for C=C1CC[C@@H]2[C@](C)(CC[C@H]3O[C@H](C=C(C)C)C[C@@]23C)[C@@H]1Cc1c(OC)oc(CO)c(C(=O)OC)c1=O [Compound 21] , report its Fig. 7a Th-T reading, mean of three wells.
Response: 0.7695

---

The entries below are paired with their reported Th-T fluorescence, mean of three wells (Fig. 7a).
- target_system: Aβ42 (Homo sapiens)
- assay_procedure: Th-T (thioflavin-T) assay of Aβ42 aggregation
- Type: biochemical
- cond: reading M114; compound at 20 (head suffix _20)
Lab note: write the figure by itself, no unit.

Some molecules with known Th-T fluorescence, mean of three wells (Fig. 7a) results, for comparison:
# molecule, target_system, quantitative_result
data = [
    ("C=C1CCC2C(C)(CCC=C(C)C)C(O)CCC2(C)C1Cc1c(OC)oc(CO)c(C)c1=O (centres unmarked)", "Aβ42 (Homo sapiens)", 2.09),
    ("C=C1CCC2C(C)(CCC=C(C)C)C(O)CCC2(C)C1Cc1c(OC)oc(CO)c(C(=O)OC)c1=O (centres unmarked)", "Aβ42 (Homo sapiens)", 1.03),
    ("C=C1CC[C@@H]2[C@](C)(CC[C@H]3O[C@H](C=C(C)C)C[C@@]23C)[C@@H]1Cc1c(OC)oc(CO)c(C(=O)OC)c1=O", "Aβ42 (Homo sapiens)", 0.941),
    ("C=C1CC[C@@H]2[C@](C)(CC[C@H]3O[C@H](C=C(C)C)C[C@@]23C)[C@@H]1Cc1c(OC)oc(CO)c(C)c1=O", "Aβ42 (Homo sapiens)", 3.188),
]

Query: Using the record for C=C1CCC2C(C)(CCC=C(C)C)C(O)CCC2(C)C1Cc1c(OC)oc(C)c(C(=O)OC)c1=O (centres unmarked) , report its Th-T fluorescence, mean of three wells (Fig. 7a).
Response: 1.678

---

The entries below are paired with their reported Th-T fluorescence, mean of three wells.
- target_system: Aβ42 (Homo sapiens, UniProt P05067)
- assay_procedure: Th-T (thioflavin-T) assay of Aβ42 aggregation
- Format: biochemical
- cond: Aβ42 aggregation time course, reading M136

Some compounds with known Th-T fluorescence, mean of three wells results, for comparison:
# compound, Th-T fluorescence, mean of three wells
measured = [
    ("C=C1CC[C@H]2[C@]3(C)C[C@H](C=C(C)C)O[C@H]3CC[C@]2(C)[C@@H]1Cc1c(OC)oc(CO)c(C)c1=O", 3.746),
    ("C=C1CCC2C(C)(CCC=C(C)C)C(=O)CCC2(C)C1Cc1c(O)c(C)c(C)oc1=O (centres unmarked)", 2.198),
    ("C=C1CCC2C(C)(CC(=O)C=C(C)C)C(O)CCC2(C)C1Cc1c(O)c(C)c(C)oc1=O (centres unmarked)", 3.414),
    ("C=C1CC[C@@H]2[C@](C)(CC[C@H]3O[C@H](C=C(C)C)C[C@@]23C)[C@@H]1Cc1c(O)c(C)c(C)oc1=O", 2.985),
]

Query: Using the record for C=C1CC[C@H]2[C@]3(C)C[C@H](C=C(C)C)O[C@H]3CC[C@]2(C)[C@@H]1Cc1c(OC)oc(C)c(C)c1=O , report its Th-T fluorescence, mean of three wells.
Response: 3.855

Query: Using the record for CC(C)=CCC/C(C)=C/CC/C(C)=C/CC/C(C)=C/Cc1c(O)c(C)c(C)oc1=O , report its Th-T fluorescence, mean of three wells.
Response: 2.912

Query: Using the record for C=C1CC[C@H]2[C@]3(C)C[C@@H](C=C(C)C)O[C@H]3CC[C@]2(C)[C@@H]1Cc1c(O)c(C)c(C)oc1=O , report its Th-T fluorescence, mean of three wells.
Response: 2.674

Query: Using the record for C=C1CCC2C(C)(CC(=O)C=C(C)C)C(O)CCC2(C)C1Cc1c(OC)oc(C)c(C)c1=O (centres unmarked) , report its Th-T fluorescence, mean of three wells.
Response: 3.5303

---

- target_system: UniProt:P05067
- assay_procedure: Th-T (thioflavin-T) assay of Aβ42 aggregation
- Type: biochemical
- cond: compound at 20; reading M47 of time course
Tag: label 1 if measured Th-T fluorescence, mean of three wells is not below 2, label 0 if it is.

# molecule, label_class
data = [
    ("C=C1CC[C@@H]2[C@](C)(CC[C@H]3O[C@H](C=C(C)C)C[C@@]23C)[C@@H]1Cc1c(OC)oc(CO)c(C(=O)OC)c1=O", "label 0"),
    ("C=C1CCC2C(C)(CCC=C(C)C)C(O)CCC2(C)C1Cc1c(OC)oc(CO)c(C)c1=O (centres unmarked)", "label 1"),
    ("C=C1CCC2C(C)(CCC=C(C)C)C(O)CCC2(C)C1Cc1c(OC)oc(CO)c(C(=O)OC)c1=O (centres unmarked)", "label 0"),
]

Query: Evaluate C=C1CC[C@@H]2[C@](C)(CC[C@H]3O[C@H](C=C(C)C)C[C@@]23C)[C@@H]1Cc1c(OC)oc(CO)c(C)c1=O : Th-T fluorescence, mean of three wells at minimum 2?
Response: label 1

Query: Evaluate C=C1CCC2C(C)(CCC=C(C)C)C(O)CCC2(C)C1Cc1c(OC)oc(C)c(C(=O)OC)c1=O (centres unmarked) : Th-T fluorescence, mean of three wells at minimum 2?
Response: label 1
